FYI, the data here is from patent US20190077844A1.

Reported muGPC3 koff (mut/par) values for the following binders.
- MEASURED ON: T1, Recombinant murine glypican-3 (aa 25-557) (R&D Systems) (murine, UniProt Q8CFZ4 25-557)
- T1 construct: also called muGPC3; murine GPC3
- EXPERIMENTAL PROTOCOL: SPR 1-point off-rate, ratio to parental ADX_6077_F02
Give the value in ratio mutant/parent but do not write ratio mutant/parent after it.

See these solved cases before continuing.
ADX_6077_F02 DG→SG mutant, alkylated (designed binder, C-terminal cysteine alkylated, also called P1-055668) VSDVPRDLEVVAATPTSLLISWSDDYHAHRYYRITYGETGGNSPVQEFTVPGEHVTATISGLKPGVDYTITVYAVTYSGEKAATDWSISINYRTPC: 4.8
ADX_6077_F02 DG→DA mutant, alkylated (designed binder, C-terminal cysteine alkylated, also called P1-055660) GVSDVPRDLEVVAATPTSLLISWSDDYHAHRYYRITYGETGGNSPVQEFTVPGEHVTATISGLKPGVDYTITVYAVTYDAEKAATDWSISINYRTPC: 3.7
ADX_6077_F02 DG→DV mutant, alkylated (designed binder, C-terminal cysteine alkylated, also called P1-055672) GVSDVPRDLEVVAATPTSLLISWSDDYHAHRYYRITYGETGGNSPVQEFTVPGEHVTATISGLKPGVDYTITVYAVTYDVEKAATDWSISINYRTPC: 7
ADX_6077_F02 DG→GG mutant, alkylated (designed binder, C-terminal cysteine alkylated, also called P1-055670) GVSDVPRDLEVVAATPTSLLISWSDDYHAHRYYRITYGETGGNSPVQEFTVPGEHVTATISGLKPGVDYTITVYAVTYGGEKAATDWSISINYRTPC: 12
ADX_6077_F02 DG→AG mutant, alkylated (designed binder, C-terminal cysteine alkylated, also called P1-055669) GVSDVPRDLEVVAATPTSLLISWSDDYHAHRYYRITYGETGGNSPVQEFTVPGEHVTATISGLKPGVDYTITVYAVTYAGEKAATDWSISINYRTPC: 5.5
ADX_6077_F02 DG→DS mutant, alkylated (designed binder, C-terminal cysteine alkylated, also called P1-055667) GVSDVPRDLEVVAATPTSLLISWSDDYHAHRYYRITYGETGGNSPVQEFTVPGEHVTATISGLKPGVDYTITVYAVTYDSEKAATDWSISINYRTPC: 3.3
ADX_6077_F02 DG→DL mutant, alkylated (designed binder, C-terminal cysteine alkylated, also called P1-055671) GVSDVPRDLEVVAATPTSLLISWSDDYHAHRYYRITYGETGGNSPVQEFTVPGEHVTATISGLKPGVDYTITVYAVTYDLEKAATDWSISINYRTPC: 3.1

Alright, here's another binder for you.
Req: Determine its reported muGPC3 koff (mut/par): ADX_6077_F02 DG→EG mutant, alkylated (designed binder, C-terminal cysteine alkylated, also called P1-055673) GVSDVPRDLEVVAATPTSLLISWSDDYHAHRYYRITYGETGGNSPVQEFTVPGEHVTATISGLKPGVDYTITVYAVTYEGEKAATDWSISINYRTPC
Resp: 5.1
